These measurements were taken from ChEMBL document CHEMBL3885881.

organism: Rattus norvegicus; experiment: DrugMatrix - Regimen: Daily Repeat; type: toxicity, organism-based, Sprague-Dawley; parameters: regimen Daily Repeat, gender Male, age 6-8 weeks; details: in vivo, po, 0 mg/kg, 120 h, tissue Blood, route oral GAVAGE, dose level Control, time 5 day, […]
endpoint-label: EOSINOPHIL (%)
Give the number; % is assumed, so skip it.

Complete the entry with EOSINOPHIL for COC(=O)Nc1nc2ccc(C(=O)c3ccccc3)cc2[nH]1
0

Determine its reported EOSINOPHIL: c1ccc2c(c1)Nc1ccccc1S2
0

Fill in EOSINOPHIL for record CO[C@H]1O[C@@H]2O[C@@]3(C)CC[C@H]4[C@H](C)CC[C@@H]([C@H]1C)[C@@]24OO3
1

Indicate the recorded EOSINOPHIL value for this compound: Cc1cccc(C)c1NC(=O)C(C)N (stereo not given) [TOCAINIDE]
0

Specify measured EOSINOPHIL for O=C(Nc1ccc(Cl)c(Cl)c1)c1cc(Cl)cc(Cl)c1O [3,3',4',5-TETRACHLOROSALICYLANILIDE] .
0.33

---

Exercise: for every item that follows, state its recorded GLUCOSE.
species: Rattus norvegicus; assay: DrugMatrix - Regimen: Daily Repeat; type: toxicity, organism-based, Sprague-Dawley; design: regimen Daily Repeat, gender Male, age 6-8 weeks; details: in vivo, po, 0 mg/kg, 120 h, tissue Plasma, route oral GAVAGE, dose level Control, time 5 day, […]
Return type: number; implicit unit mg/dL.

Please report the measured GLUCOSE for CS(=O)(=O)c1ccc(C2=C(c3ccccc3)C(=O)OC2)cc1 [ROFECOXIB]
171.33

Identify measured GLUCOSE associated with CO[C@H]1O[C@@H]2O[C@@]3(C)CC[C@H]4[C@H](C)CC[C@@H]([C@H]1C)[C@@]24OO3
182.33

Provide only the value of recorded GLUCOSE for COC(=O)Nc1nc2ccc(C(=O)c3ccccc3)cc2[nH]1 [MEBENDAZOLE]
162.83

Name the recorded GLUCOSE of the item Oc1ncnc2[nH]ncc12 [ALLOPURINOL] in your answer.
162.33

Provide only the value of recorded GLUCOSE for Cc1cccc(C)c1NC(=O)C(C)N (stereo not given) [TOCAINIDE]
182.83

---

organism: Rattus norvegicus; assay: DrugMatrix - Regimen: Daily Repeat; assay type: toxicity, organism-based, Sprague-Dawley; parameters: regimen Daily Repeat, gender Male, age 6-8 weeks; details: in vivo, po, 0 mg/kg, 120 h, tissue Plasma, route oral GAVAGE, dose level Control, time 5 day, […]
endpoint-label: SODIUM (MEQ/L)
Numbers only; they are read as MEQ/L.

Identify SODIUM associated with the compound CCOC(=O)C1=C(C)NC(C)=C(C(=O)OCC)C1c1ccccc1/C=C/C(=O)OC(C)(C)C
143.87

Please give measured SODIUM of the following entry: CCC(C)(C)C(=O)O[C@H]1C[C@@H](C)C=C2C=C[C@H](C)[C@H](CC[C@@H]3C[C@@H](O)CC(=O)O3)[C@H]21
141.62

Provide SODIUM value for the following compound: COc1ccccc1OCCNCC(O)COc1cccc2[nH]c3ccccc3c12 (stereo not given)
143.93

Identify measured SODIUM corresponding to Oc1ncnc2[nH]ncc12
146.07

Consider the compound Cc1cccc(C)c1NC(=O)C(C)N (stereo not given) [TOCAINIDE] . State its measured SODIUM.
142.48
